Experiment: AUC in po dosed rat at LOAEL measured after 7 days
Assay type: ADME, organism-based
Conditions: in vivo
experimental_readout: AUC
Don't forget the unit after the value.

So what's the measured AUC for this one? `COc1cc(N(CC2CC2)c2ccc(Cl)c3ccccc23)cnc1C(=O)[C@H]1C[C@@H]1C(=O)O`
1830 µM·h

* * *

Assay: Effective half life in cynomolgus monkey at 1 mg/kg, iv or 2 mg/kg, po after 48 hrs
Format: ADME, organism-based, Macaca fascicularis
Conditions: in vivo, read-out: t1/2eff (converted)
experimental_readout: half-life (h)
Output spec: scalar in h, unitless text.

Field request: half-life | item: `COc1nc(N(CC(C)(C)F)c2cc(Cl)c(F)cc2F)cnc1C(=O)[C@H]1C[C@@H]1C(=O)O`
12
